tested.on: Recombinant IKKα (Homo sapiens)
Construct: purchased Millipore, Dundee, UK
Sequence (O15111 1-745): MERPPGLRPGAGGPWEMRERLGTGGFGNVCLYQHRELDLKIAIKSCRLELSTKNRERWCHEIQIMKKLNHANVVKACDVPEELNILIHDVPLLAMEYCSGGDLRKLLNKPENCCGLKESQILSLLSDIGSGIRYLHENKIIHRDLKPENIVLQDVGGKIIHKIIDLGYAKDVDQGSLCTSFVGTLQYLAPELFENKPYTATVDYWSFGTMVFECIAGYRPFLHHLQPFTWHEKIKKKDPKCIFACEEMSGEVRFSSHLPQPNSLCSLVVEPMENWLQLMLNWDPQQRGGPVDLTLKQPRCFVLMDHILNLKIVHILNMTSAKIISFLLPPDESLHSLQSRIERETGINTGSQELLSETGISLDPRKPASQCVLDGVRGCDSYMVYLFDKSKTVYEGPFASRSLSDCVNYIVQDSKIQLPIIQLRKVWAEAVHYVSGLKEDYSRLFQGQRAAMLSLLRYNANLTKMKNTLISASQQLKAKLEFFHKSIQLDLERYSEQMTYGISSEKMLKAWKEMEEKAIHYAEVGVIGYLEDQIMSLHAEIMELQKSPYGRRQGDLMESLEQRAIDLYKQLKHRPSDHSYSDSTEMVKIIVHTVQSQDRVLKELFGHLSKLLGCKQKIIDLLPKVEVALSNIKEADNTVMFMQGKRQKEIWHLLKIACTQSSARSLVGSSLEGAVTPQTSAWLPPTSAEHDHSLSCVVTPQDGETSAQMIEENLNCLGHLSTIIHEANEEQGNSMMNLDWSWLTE
assay.overview: DELFIA IKKα kinase assay (apparent Ki, Cheng-Prusoff)
Assay type: biochemical
stated.conditions: DELFIA assay (first line of an example)
Here, each record is paired with measured log10 of Ki data.
measurement.name: log10 of Ki (log10 of the value in nM)

* Nc1n[nH]c2ccc(-c3ccnc4[nH]c(C(=O)NCCCc5ccccc5)cc34)cc12 | 0.70
* Nc1n[nH]c2c(C#CCCCN3CCCCC3)cc(-c3ccnc4[nH]ccc34)cc12 | 1.48
* Nc1n[nH]c2c(-c3ccoc3)cc(-c3ccnc4[nH]ccc34)cc12 | 0.78
* CC(=O)Nc1cc(-c2cc(C#CC(C)(C)C)c3[nH]nc(N)c3c2)cc(F)n1 | 4.34
* CC(C)(C)C#Cc1cc(-c2ccnc3[nH]c(C(F)F)nc23)cc2c(N)n[nH]c12 | 1.11
* COCCCNCc1cc2c(-c3ccc4[nH]nc(N)c4c3)ccnc2[nH]1 | 1.66
* Nc1n[nH]c2c(C#CC3(O)CCCC3)cc(-c3ccnc(NC4COC4)c3)cc12 | 1.98
* CCOC(=O)c1cc2c(-c3ccc4[nH]nc(N)c4c3)ccnc2[nH]1 | 1.00
* CC(C)(C)C#Cc1cc(-c2ccnc(NCCC(F)(F)F)c2)cc2c(N)n[nH]c12 | 2.33
* Nc1n[nH]c2c(C#CC3CCCC3)cc(-c3ccnc4[nH]ccc34)cc12 | 1.41
* CC(C)(C)C#Cc1cc(-c2ccnc(Nc3cc[nH]n3)c2)cc2c(N)n[nH]c12 | 1.68
* CC(C)(C)C#Cc1cc(-c2ccnc(Nc3ncco3)c2)cc2c(N)n[nH]c12 | 1.28

---

tested.on: Recombinant IKKβ (Homo sapiens)
Construct: purchased Millipore, Dundee, UK
Sequence (O14920 1-756): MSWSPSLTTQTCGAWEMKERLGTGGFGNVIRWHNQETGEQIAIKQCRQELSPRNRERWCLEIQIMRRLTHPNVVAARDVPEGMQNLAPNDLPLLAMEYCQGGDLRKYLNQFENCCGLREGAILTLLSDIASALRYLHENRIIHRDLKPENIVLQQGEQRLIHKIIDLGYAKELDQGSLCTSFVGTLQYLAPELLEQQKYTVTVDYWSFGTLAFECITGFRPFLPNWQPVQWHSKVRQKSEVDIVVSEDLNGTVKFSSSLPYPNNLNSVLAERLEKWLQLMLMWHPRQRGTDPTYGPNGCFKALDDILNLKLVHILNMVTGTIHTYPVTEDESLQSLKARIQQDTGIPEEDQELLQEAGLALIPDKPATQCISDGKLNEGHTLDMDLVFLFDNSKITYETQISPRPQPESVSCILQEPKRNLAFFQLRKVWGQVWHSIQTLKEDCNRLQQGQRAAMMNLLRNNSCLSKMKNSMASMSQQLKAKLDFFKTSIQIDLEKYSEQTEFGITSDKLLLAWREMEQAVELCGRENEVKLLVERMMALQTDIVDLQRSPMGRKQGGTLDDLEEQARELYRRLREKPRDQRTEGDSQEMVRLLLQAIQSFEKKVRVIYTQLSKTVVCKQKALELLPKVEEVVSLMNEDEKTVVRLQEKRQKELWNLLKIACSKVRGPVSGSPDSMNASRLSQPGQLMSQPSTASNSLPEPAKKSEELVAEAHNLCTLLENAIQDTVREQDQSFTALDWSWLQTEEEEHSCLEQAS
assay.overview: DELFIA IKKβ kinase assay (apparent Ki, Cheng-Prusoff)
Format: biochemical
stated.conditions: non-italicised figure: DELFIA assay
measurement.name: Ki (nM)

- Nc1cc(-c2cc(-c3ccccc3)c3[nH]nc(N)c3c2)ccn1: 838
- Nc1cc(-c2cc(-c3ccncc3)c3[nH]nc(N)c3c2)ccn1: 1300
- Nc1cc(-c2cc(-c3cccc(C(F)(F)F)c3)c3[nH]nc(N)c3c2)ccn1: 1010
- Nc1nccc(-c2ccc3[nH]nc(N)c3c2)c1C#CCCN1CCOCC1: 922
- CCCCCCNc1cc(-c2ccc3[nH]nc(N)c3c2)ccn1: 1340
